System: NCI-H522 lung
assay: NCI tumour cell line growth inhibition, 48 h
I'd appreciate it if you could supply TGI values for the items below.

Observe how each entry below is paired with its result.
Bench note: what TGI did CC1=CC[C@@H](C(C)(C)O)C[C@@H]1O show?
> 5000 µM

Bench note: what TGI did COc1cc(C)[nH]c(=O)c1CNC(=O)c1c(C)n([C@H](C)C2CCN(CC(F)(F)F)CC2)c2ccccc12 show?
> 100 µM

Bench note: what TGI did NC1(C(=O)N[C@@H](CCO)c2ccc(Cl)cc2)CCN(c2ncnc3[nH]ccc23)CC1 show?
> 90.3 µM

Give TGI for each of the items listed below.
1. COc1cc(OC)c(/C=N\Nc2nc3ccccc3c(=O)n2-c2ccccc2)c(OC)c1
2. N#Cc1cccc(C2C(=O)c3ccc(C(=O)c4ccc5c(c4)C(=O)N(c4ccc(Oc6ccc(N7C(=O)c8ccc(C(=O)c9ccc%10c(c9)C(=O)N(c9cccc(C#N)c9)C%10=O)cc8C7=O)cc6)cc4)C5=O)cc3C2=O)c1 (configuration not stated)
3. Cc1cc(Cl)cc2c1NC(=O)C2(O)C(C(=O)c1ccccc1)c1ccccc1 (configuration not stated)
4. CN1CCc2c(sc3ncn(Nc4ccc(F)cc4)c(=N)c23)C1
5. CC(C)CC1N=C(OCc2ccccc2)OC1=O (configuration not stated)

1. > 100 µM
2. > 100 µM
3. > 100 µM
4. > 100 µM
5. > 100 µM

Give TGI for each of the items listed below.
1. CC/C(=C(/c1ccc(OCCN(C)C)cc1)c1ccc(OC(=O)CCCCCCCCC(=O)c2c(C)[nH]c(/C=C3\N=C(c4ccc[nH]4)C=C3OC)c2C)cc1)c1ccccc1
2. O=C(CC1(O)C(=O)Nc2ccccc21)c1ccccc1O (configuration not stated)

1: > 100 µM; 2: > 100 µM

Give TGI for each of the items listed below.
1. [O-][N+]1=C2CCC/C(=N/O)C2(O)C2CCCCC21N1CCOCC1 (configuration not stated)
2. Cc1ccc(-c2cc(=O)c(=O)[nH][nH]2)cc1

1: > 100 µM; 2: > 100 µM

Source listed as PubChem BioAssay (NCI).
